test.system: murine TRIM21 PRY-SPRY domain (Mus musculus, UniProt Q62191)
Construct: mouse TRIM21 PRY-SPRY domain (residues V291-M470, UniProt-ID: Q62191); made in house; host or cells: E. coli BL21(DE3)
Sequence (Q62191 291-470): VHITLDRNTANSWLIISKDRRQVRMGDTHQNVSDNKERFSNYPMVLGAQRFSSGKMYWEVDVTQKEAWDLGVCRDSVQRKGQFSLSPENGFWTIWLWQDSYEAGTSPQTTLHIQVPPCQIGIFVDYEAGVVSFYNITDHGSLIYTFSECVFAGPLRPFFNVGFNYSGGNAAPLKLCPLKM
procedure.details: Differential scanning fluorimetry (DSF, ΔTm), mouse TRIM21 PRY-SPRY domain
Type: binding
experimental.setup: 2 mM compound, 8 μM protein
Output true (1) for records whose Tm-shift mTRIM21 is lower than -0.2 °C, false (0) for records at or above -0.2 °C.

* CS(=O)(=O)NCCc1ccccc1 | true (1)
* CC(NS(C)(=O)=O)c1ccccc1Cl (centres unmarked) | true (1)
* CNC(=O)c1ccc(S(N)(=O)=O)cc1 | true (1)
* c1cc(NCC2CCCO2)ccn1 (centres unmarked) | false (0)
* CC(CS(N)(=O)=O)c1ccccc1 (centres unmarked) | true (1)
* CC(=O)N1CCCC(CNS(C)(=O)=O)C1 (centres unmarked) | false (0)
* CC#CCN(C)C1CCS(=O)(=O)CC1 | false (0)
* c1cnc(N2CCC3(CCOC3)C2)cn1 (centres unmarked) | false (0)

Data request: Could you please tell me whether Tm-shift mTRIM21 recorded for CN1CCC(Oc2cccc(F)c2)C1=O (centres unmarked) is less than -0.2 °C?
Data returned: true (1)

Data request: Determine whether this compound shows Tm-shift mTRIM21 lower than -0.2 °C (ties excluded): `CN(C)c1ccncc1`
Data returned: false (0)

Data request: In plain terms, does O=C(O)C1CCCN(C(=O)Cc2ccc(F)cc2)C1 (centres unmarked) come in under -0.2 °C for Tm-shift mTRIM21?
Data returned: true (1)

Data request: A record lists CS(=O)(=O)NC1CCOC2(CCCC2)C1 (centres unmarked) . Is its Tm-shift mTRIM21 below -0.2 °C?
Data returned: true (1)

Data request: Below -0.2 °C on Tm-shift mTRIM21? Entry `CC(C)N(C)c1ncnc2c1cnn2C`
Data returned: true (1)

* * *

Consider the following molecules; for each one, report its Tm-shift mTRIM21.
test.system: murine TRIM21 PRY-SPRY domain (Mus musculus)
Construct: mouse TRIM21 PRY-SPRY domain (residues V291-M470, UniProt-ID: Q62191); made in house; host or cells: E. coli BL21(DE3)
procedure.details: Differential scanning fluorimetry (DSF, ΔTm), mouse TRIM21 PRY-SPRY domain
Assay type: binding
experimental.setup: 2 mM compound, 8 μM protein

• CC(=O)NCCc1ccccc1C = -0.3 °C
• CCOC(=O)CN1CCS(=O)(=O)CC1 = 0 °C
• Cc1nc2[nH]c(C(C)C)cc(=O)n2n1 = -0.4 °C

Give Tm-shift mTRIM21 for each listed item.
1. Cc1nsc(N2CCCNCC2)n1
2. CCCn1c(NC(=O)CC)nc2ccccc21
3. CCc1nc(Cn2ccccc2=O)no1
4. Cc1c(Cl)cccc1NC(=O)[C@@H]1CCCO1
5. OC1CN(C(c2ccccc2)c2ccccc2)C1

Data returned:
1: -0.1 °C; 2: -0.6 °C; 3: -0.2 °C; 4: -0.9 °C; 5: -0.5 °C

* * *

Kindly supply the reported SPR hTRIM21 (Response) values for the records listed here.
test.system: His-SUMO-hTRIM21 PRY-SPRY (Homo sapiens)
Construct: Human TRIM21 PRY-SPRY domain (residues V287-I465, UniProt-ID: P19474); made in house; host or cells: E. coli BL21(DE3)
procedure.details: SPR fragment screening, human TRIM21 PRY-SPRY
Assay type: binding
experimental.setup: single dose 500 µM fragment; relative response, suramin reference threshold 100 relative RU
Answers are plain numbers.

Some compounds with recorded SPR hTRIM21 (Response):
- CCCc1cc(=O)oc2cc(OC(C)=O)ccc12: 95.03
- CNC(=O)c1ccc(S(N)(=O)=O)cc1: 49.74
- O=C(c1csnn1)N1CCOCC1: 28.98
- Cc1nsc(N2CCCNCC2)n1: 59.22
- CC(=O)N1Cc2ccc(N)cc2C1: 107.4
- CS(=O)(=O)NCCc1ccc(F)cc1: 48.3

Give SPR hTRIM21 (Response) for each listed item.
1. CN1CCOC(CNc2nccs2)C1 (stereo not shown)
2. Cc1cc(Cn2nc(C)ccc2=O)on1
3. CS(=O)(=O)NC1CCOC2(CCCC2)C1 (stereo not shown)
4. CCc1nnc(NC(=O)C2CCCO2)s1 (stereo not shown)
5. CC(NS(C)(=O)=O)c1ccccc1Cl (stereo not shown)
6. CCc1nc(Cn2ccccc2=O)no1
7. CCc1ncc(CNC)s1
8. CC(O)c1cnn(C2CCCC2)c1 (stereo not shown)

Data returned:
20.86
45.75
28.35
48.81
74.68
44.97
45.3
39.09

Hi team, please reply with SPR hTRIM21 (Response) for each item in this list.
1. c1cnc(N2CCC3(CCOC3)C2)cn1 (stereo not shown)
2. CCOC(=O)CN1CCS(=O)(=O)CC1
3. CCc1csc(-c2c[nH]cn2)n1

Data returned:
640.3
29.17
45.06

* * *

test.system: His-mTRIM21 PRYSPRY (Mus musculus)
Construct: mouse TRIM21 PRY-SPRY domain (residues V291-M470, UniProt-ID: Q62191); made in house; host or cells: E. coli BL21(DE3)
Sequence (Q62191 291-470): as above
procedure.details: SPR fragment screening and dose response, mouse TRIM21 PRY-SPRY
Format: binding
experimental.setup: single dose 500 µM fragment; relative response, suramin reference threshold 100 relative RU
parameter.measured: SPR mTRIM21 (Response)

The following compounds have reported results that may help.
• CCCn1c(NC(=O)CC)nc2ccccc21 = 54.53
• CCCc1cc(=O)oc2cc(OC(C)=O)ccc12 = 78.57

For each of the compounds below, note its SPR mTRIM21 (Response).
1. Cc1nsc(N2CCCNCC2)n1
2. CN1CCC(Oc2cccc(F)c2)C1=O (stereo not shown)
3. O=C(c1ccco1)N1CCN(C(=O)C2CC2)CC1
4. CN(C)c1ccncc1
5. Cc1cc(N2CCCCC2)nc(CO)n1
6. Nc1ccc(S(=O)(=O)Nc2ccccn2)cc1
7. COCC(=O)NCc1ccccc1

Data returned:
1: 154; 2: 74.94; 3: 37.82; 4: 131.3; 5: 77.01; 6: 106.3; 7: 37.9

Provide the reported SPR mTRIM21 (Response) of each entry below, same order.
1. c1cc(NCC2CCCO2)ccn1 (stereo not shown)
2. O=C(c1csnn1)N1CCOCC1
3. Cc1c(C(C)NS(C)(=O)=O)cnn1C (stereo not shown)
4. CCc1ncc(CNC)s1
5. CCOC(=O)CN1CCS(=O)(=O)CC1
6. O=C1CN(Cc2ccccc2)CC(=O)N1
7. CCC(NC)c1ccncc1 (stereo not shown)

Data returned:
1: 85.46; 2: 32.54; 3: 35.15; 4: 58.5; 5: 30.52; 6: 58.83; 7: 53.11

For the 2 compounds below, give their SPR mTRIM21 (Response) values.
1. CCc1csc(-c2c[nH]cn2)n1
2. CC(O)c1cnn(C2CCCC2)c1 (stereo not shown)

Data returned:
39.06
41.62

List SPR mTRIM21 (Response) for every entry below, keeping the order given.
1. CC(=O)N1CCCC2(CCCCCC2)C1
2. CN1CCOC(CNc2nccs2)C1 (stereo not shown)
3. CS(=O)(=O)NCCc1ccc(F)cc1

Data returned:
[32.73, 105, 46.34]

* * *

test.system: human TRIM21 PRY-SPRY domain (Homo sapiens)
Construct: Human TRIM21 PRY-SPRY domain (residues V287-I465, UniProt-ID: P19474); His6 (N, cleaved yes); SUMO (N, cleaved yes); made in house; host or cells: E. coli BL21(DE3)
Sequence (P19474 287-465): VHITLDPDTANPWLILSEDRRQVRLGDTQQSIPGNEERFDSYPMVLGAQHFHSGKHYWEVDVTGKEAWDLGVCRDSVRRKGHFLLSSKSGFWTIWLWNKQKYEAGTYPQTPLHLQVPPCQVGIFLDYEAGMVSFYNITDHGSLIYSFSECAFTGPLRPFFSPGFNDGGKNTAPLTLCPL
procedure.details: Differential scanning fluorimetry (DSF, ΔTm), human TRIM21 PRY-SPRY domain
Type: binding
experimental.setup: 2 mM compound, 8 μM protein
Kindly state Tm-Shift hTRIM21 for each of the entries shown.
Numbers only, in °C.

Consider the following illustrative entries.
* CC(=O)NCc1ccnc(N(C)C)c1 | -0.1
* Cc1c(C(C)NS(C)(=O)=O)cnn1C (centres unmarked) | 0.1
* CN1CCOC(CNc2nccs2)C1 (centres unmarked) | -0.2
* Cc1cc(Cn2nc(C)ccc2=O)on1 | -0.1
* Cc1nc2[nH]c(C(C)C)cc(=O)n2n1 | -0.4
* CCc1ncc(CNC)s1 | -0.4

List reported Tm-Shift hTRIM21 for each of these compounds:
1. CC(=O)N1Cc2ccc(N)cc2C1
2. O=C(c1ccco1)N1CCN(C(=O)C2CC2)CC1
3. NC(=O)N1CCN(C(=O)c2ccco2)CC1
4. O=C1CN(Cc2ccccc2)CC(=O)N1
5. CC(NS(C)(=O)=O)c1ccccc1Cl (centres unmarked)
6. COCC(=O)NCc1ccccc1

Data returned:
0.1
0
-0.2
-0.1
-0.7
-0.3

Quick one: give me Tm-Shift hTRIM21 for each item below, same order please.
1. CC(=O)NC1CNc2ccccc2C1 (centres unmarked)
2. c1cc(NCC2CCCO2)ccn1 (centres unmarked)
3. CCc1nc(Cn2ccccc2=O)no1

Data returned:
1. -0.1
2. -0.1
3. -0.1
